biological target: PI3kδ (Homo sapiens); assay: Fluorescent (HTRF) determination of PI3 kinase enzyme activity, PI3Kδ; type: biochemical; conditions: 100 nM (Examples 60-137); 0.1 µM
Sequence (O00329 whole entry): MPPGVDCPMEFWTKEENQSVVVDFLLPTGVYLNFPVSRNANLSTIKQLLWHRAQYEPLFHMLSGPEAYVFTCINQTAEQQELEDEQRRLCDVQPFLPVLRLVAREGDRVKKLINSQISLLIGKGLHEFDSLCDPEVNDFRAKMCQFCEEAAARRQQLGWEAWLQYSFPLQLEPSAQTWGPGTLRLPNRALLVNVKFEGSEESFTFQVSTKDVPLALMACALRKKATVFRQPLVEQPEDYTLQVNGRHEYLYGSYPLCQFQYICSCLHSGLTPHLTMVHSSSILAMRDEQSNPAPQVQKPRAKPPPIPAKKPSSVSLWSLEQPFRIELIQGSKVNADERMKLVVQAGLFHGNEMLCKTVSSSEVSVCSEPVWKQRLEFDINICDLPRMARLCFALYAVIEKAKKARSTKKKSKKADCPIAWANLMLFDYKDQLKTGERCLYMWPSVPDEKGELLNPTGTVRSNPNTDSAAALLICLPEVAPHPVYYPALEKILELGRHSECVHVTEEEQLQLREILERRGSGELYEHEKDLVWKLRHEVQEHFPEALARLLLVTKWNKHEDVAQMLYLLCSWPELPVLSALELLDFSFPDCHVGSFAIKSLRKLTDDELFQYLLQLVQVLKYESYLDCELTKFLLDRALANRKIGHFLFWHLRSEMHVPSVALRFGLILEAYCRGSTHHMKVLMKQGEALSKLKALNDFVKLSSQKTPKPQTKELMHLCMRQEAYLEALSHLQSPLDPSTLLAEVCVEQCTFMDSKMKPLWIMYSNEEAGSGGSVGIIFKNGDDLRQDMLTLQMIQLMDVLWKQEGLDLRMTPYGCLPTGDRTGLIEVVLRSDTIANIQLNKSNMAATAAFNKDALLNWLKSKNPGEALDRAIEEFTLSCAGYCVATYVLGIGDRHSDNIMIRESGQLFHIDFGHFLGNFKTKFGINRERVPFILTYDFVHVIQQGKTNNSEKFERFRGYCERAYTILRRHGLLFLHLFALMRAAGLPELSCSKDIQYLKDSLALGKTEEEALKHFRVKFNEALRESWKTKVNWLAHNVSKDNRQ
Sequence (P27986 whole entry partner): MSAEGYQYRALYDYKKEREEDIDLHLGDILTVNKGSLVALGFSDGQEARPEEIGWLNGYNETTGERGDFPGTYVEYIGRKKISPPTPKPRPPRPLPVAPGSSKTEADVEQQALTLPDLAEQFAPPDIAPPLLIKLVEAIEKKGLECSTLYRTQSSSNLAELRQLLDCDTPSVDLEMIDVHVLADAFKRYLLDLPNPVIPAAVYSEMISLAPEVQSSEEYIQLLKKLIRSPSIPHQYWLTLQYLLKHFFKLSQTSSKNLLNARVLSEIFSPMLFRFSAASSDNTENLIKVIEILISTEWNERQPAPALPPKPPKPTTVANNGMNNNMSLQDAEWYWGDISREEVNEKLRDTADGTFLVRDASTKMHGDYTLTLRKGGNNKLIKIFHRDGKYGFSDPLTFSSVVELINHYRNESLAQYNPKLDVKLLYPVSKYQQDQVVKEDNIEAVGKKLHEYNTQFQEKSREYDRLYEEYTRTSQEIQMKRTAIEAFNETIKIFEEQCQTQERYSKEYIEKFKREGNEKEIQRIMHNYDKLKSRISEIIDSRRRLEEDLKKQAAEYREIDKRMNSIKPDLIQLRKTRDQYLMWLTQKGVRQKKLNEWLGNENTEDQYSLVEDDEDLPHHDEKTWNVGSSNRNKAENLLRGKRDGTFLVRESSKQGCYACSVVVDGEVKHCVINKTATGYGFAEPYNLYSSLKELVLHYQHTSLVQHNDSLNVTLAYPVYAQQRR
measured-property: % inhibition (PI3kδ) 100 nM

{"columns": ["compound", "value"],
 "data": [
  ["Cc1cc(-c2nn(C(C)c3oc4cccc(F)c4c(=O)c3-c3cccc(F)c3)c3ncnc(N)c23)ccc1OC(C)C (single isomer, unassigned; (-)) [Example 115]", "C (C=>25 to 50%)"],
  ["Cc1cc(-c2nn(C(C)c3oc4cccc(F)c4c(=O)c3-c3cccc(F)c3)c3ncnc(N)c23)ccc1OC(C)C (single isomer, unassigned; (+)) [Example 114]", "B (B=>50 to 75%)"],
  ["CC(C)Oc1ccc(-c2nn(C(C)c3oc4cccc(F)c4c(=O)c3-c3cccc(F)c3)c3ncnc(N4CCOCC4)c23)cc1F (centres unmarked) [Example 85]", "C (C=>25 to 50%)"],
  ["CC(Nc1ncnc2[nH]cnc12)c1oc2cccc(F)c2c(=O)c1-c1cccc(F)c1 (single isomer, unassigned; (+)) [Example 68]", "C (C=>25 to 50%)"],
  ["CC(c1oc2cccc(F)c2c(=O)c1-c1cccc(F)c1)n1cnc2c(N(C)C)ncnc21 (racemic) [Example 129]", "D (D=0 to 25%)"],
  ["CNc1ncnc2c1c(-c1ccc(OC(C)C)c(F)c1)nn2C(C)c1oc2cccc(F)c2c(=O)c1-c1cccc(F)c1 (centres unmarked) [Example 84]", "B (B=>50 to 75%)"],
  ["CNc1ncnc2c1c(-c1ccc(OC(C)C)c(F)c1)nn2C(C)c1oc2cccc(F)c2c(=O)c1-c1cccc(F)c1 (single isomer, unassigned; (-)) [Example 105]", "D (D=0 to 25%)"],
  ["CC(C)Oc1ccc(-c2nn(C(C)c3oc4cccc(F)c4c(=O)c3-c3cccc(F)c3)c3ncnc(N4CCOCC4)c23)cc1F (racemic) [Example 116]", "D (D=0 to 25%)"],
  ["CNc1ncnc2c1c(-c1ccc(OC(C)C)c(F)c1)nn2C(C)c1oc2cccc(F)c2c(=O)c1-c1cccc(F)c1 (single isomer, unassigned; (+)) [Example 104]", "D (D=0 to 25%)"],
  ["CC(Nc1ncnc2[nH]cnc12)c1oc2cccc(F)c2c(=O)c1-c1cccc(F)c1 (centres unmarked) [Example 69]", "B (B=>50 to 75%)"]
]}

Measured values drawn from patent US11020399B2 for this set.
